Where do these numbers come from? They come from patent US20220220215A1.

measured target: T1, Rhesus CD137-Fc tagged protein (rhesus, UniProt H9Z8K9 24-186)
T1 construct: extracellular domain; The Octet paragraph gives no catalogue number; also called rhCD137-Fc
protocol details: BLI (Octet RED384), CD137-Fc on Protein G sensor, 1:1 model
pKd: −log10 of the molar value.
Each entry below carries its recorded pKd.
measurement kind: pKd

[
  {
    "binder": "003BB172-E01-1 (VHH, Human VH single domain antibody, monovalent) VHH: EVQLVESGGGLVQPGGSLRLSCAASGFTFSNYGMHWVRQAPGKGLEWVAVISNDGNTKTYADSVKGRFTISRDNSKNMLYLQMTSLRTEDTAVYYCAQDETTTVTASYYFDYWGQGTLVTVSS",
    "obs value": 7.66
  },
  {
    "binder": "003BB172-E01-11 (VHH, Human VH single domain antibody, monovalent) VHH: EVQLVESGGGVVQPGRSLRLSCAASGFTFSNYGMHWVRQAPGKGLEWVAVISNDGNTKTYADSVKGRFTISRDNSKNTLYLQMNSLRTEDTAVYYCAQDETTTVTASYYFDYWGQGTLVTVSS",
    "obs value": 7.48
  },
  {
    "binder": "003BB172-E01 (VHH, also called 003BB1172-E01) VHH: EVQLVESGGGLVQPGGSLRLSCAASGFTFSNYGMHWVRQAPGKRLEWVAVISNDGNTKTYADSVKGRFTISRDNSKNMLYLQMTSLRTEDTAVYYCAQDETTTVTASYYFDYWGQGTLVTVSS",
    "obs value": 7.56
  },
  {
    "binder": "003BB172-E01-13 (VHH, Human VH single domain antibody, monovalent; also called CD137D; 172E1-13) VHH: EVQLVESGGGVVQPGGSLRLSCAASGFTFSNYGMHWVRQAPGKGLEWVAVISNDGNTKTYADSVKGRFTISRDNSKNTLYLQMNSLRAEDTAVYYCAQDETTTVTASYYFDYWGQGTLVTVSS",
    "obs value": 7.64
  },
  {
    "binder": "003BB172-E01-2 (VHH, Human VH single domain antibody, monovalent) VHH: EVQLVESGGGLVQPGGSLRLSCAASGFTFSNYGMHWVRQAPGKRLEWVAVISNDGNTKTYADSVKGRFTISRDNSKNTLYLQMTSLRTEDTAVYYCAQDETTTVTASYYFDYWGQGTLVTVSS",
    "obs value": 7.59
  },
  {
    "binder": "003BB172-E01-8 (VHH, Human VH single domain antibody, monovalent) VHH: EVQLVESGGGVVQPGGSLRLSCAASGFTFSNYGMHWVRQAPGKGLEWVAVISNDGNTKTYADSVKGRFTISRDNSKNTLYLQMNSLRTEDTAVYYCAQDETTTVTASYYFDYWGQGTLVTVSS",
    "obs value": 7.38
  },
  {
    "binder": "003BB172-E01-9 (VHH, Human VH single domain antibody, monovalent) VHH: EVQLVESGGGLVQPGGSLRLSCAASGFTFSNYGMHWVRQAPGKGLEWVAVISNDGNTKTYADSVKGRFTISRDNSKNTLYLQMNSLRAEDTAVYYCAQDETTTVTASYYFDYWGQGTLVTVSS",
    "obs value": 7.64
  },
  {
    "binder": "003BB172-E01-12 (VHH, Human VH single domain antibody, monovalent) VHH: EVQLVESGGGLVQPGRSLRLSCAASGFTFSNYGMHWVRQAPGKGLEWVAVISNDGNTKTYADSVKGRFTISRDNSKNTLYLQMNSLRAEDTAVYYCAQDETTTVTASYYFDYWGQGTLVTVSS",
    "obs value": 7.41
  }
]
